Rule: logP below 4 gives class 1. Equal to or above 4 gives class 0.

Solved cases below.
COc1c(Br)ccc(Cl)c1Cl; class 0
COc1ccc(Br)cc1; class 1
COc1cc(Cl)c(Br)c(Cl)c1; class 0
COc1c(Br)cccc1Br; class 1
COc1c(Cl)c(Cl)cc(Br)c1Cl; class 0
COc1ccc(Cl)cc1Br; class 1
COc1ccc(Cl)c(Cl)c1; class 1
COc1c(Br)cc(Br)c(Cl)c1Cl; class 0
COc1cc(Cl)cc(Cl)c1Br; class 0
COc1ccc(Br)c(Cl)c1Cl; class 0

Qu. Regarding COc1cc(Br)c(Cl)cc1Cl , kindly confirm whether its logP is beneath 4.
Ans. class 0

Qu. Find out if reported logP for COc1c(Br)cc(Br)c(Cl)c1Br is less than 4
Ans. class 0

Qu. Quick check: does COc1c(Cl)cc(Br)c(Cl)c1Cl have logP under 4?
Ans. class 0

Qu. Hello, I'm reviewing records and need to know if logP of COc1ccccc1Cl is below 4. Could you check?
Ans. class 1
